# measurementTarget: BRD2-BD2 (Homo sapiens (Human), UniProt P25440)
# assay: isothermal titration calorimetry analysis of binding
# details: ITC, BRD2-BD2
# Sequence (P25440 348-455): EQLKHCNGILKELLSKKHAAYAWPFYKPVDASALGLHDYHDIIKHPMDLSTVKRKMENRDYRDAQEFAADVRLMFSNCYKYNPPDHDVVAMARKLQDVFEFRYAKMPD
propertyLabel: ΔH (kcal/mol)
Report the figure in kcal/mol without appending any unit label.

Take a look at these entries with their results.
CC(=O)N1c2ccc(-c3ccsc3)cc2[C@H](NC(=O)OC(C)C)C[C@@H]1C
-6.92
CC(=O)N1c2ccc(-c3ccoc3)cc2[C@H](NC(=O)OC(C)C)C[C@@H]1C
-6.31

**Query** May I ask what ΔH has been recorded for CC(=O)N1c2ccc(-c3ccc[nH]3)cc2[C@H](NC(=O)OC(C)C)C[C@@H]1C ?
**Result** -6.89

**Query** // query: CC(=O)N1c2ccc(-c3cccs3)cc2[C@H](NC(=O)OC(C)C)C[C@@H]1C
**Result** -7.18

**Query** // query: CC(=O)N1c2ccc(-c3cc[nH]c3)cc2[C@H](NC(=O)OC(C)C)C[C@@H]1C
**Result** -7.01

* * *

# measurementTarget: BRD4-BD1 (Homo sapiens (Human), UniProt O60885)
# assay: competitive TR-FRET assay, BET-BD with acetylated peptide ligand
# Format: binding
# details: BRD4-BD1; Table 11 additional modifications; read-out: 4.1 EC50
propertyLabel: pEC50
Please express pEC50 as -log10 of the molar concentration.

Take a look at these entries with their results.
CC(=O)Nc1cccc(-c2ccc3c(c2)[C@H](Nc2ccc(N(C)C)cc2)C[C@H](C)N3C(C)=O)c1
5.29
CCCCNc1cccc(-c2ccc3c(c2)[C@H](NC(=O)OC(C)C)C[C@H](C)N3C(C)=O)c1
6.33
CC(=O)N1c2ccc(-c3cccc(NCC4CC4)c3)cc2[C@H](NC(=O)OC(C)C)C[C@@H]1C
5.77
CCCNc1cccc(-c2ccc3c(c2)[C@H](NC(=O)OC(C)C)C[C@H](C)N3C(C)=O)c1
5.74

Now, please, on to the next molecule.
**Query** May I ask what pEC50 has been recorded for CC(=O)Nc1cccc(-c2ccc3c(c2)[C@H](NC2CCCCCC2)C[C@H](C)N3C(C)=O)c1 ?
**Result** 5.82

* * *

# measurementTarget: BRD4-BD1 (Homo sapiens (Human))
# assay: competitive TR-FRET assay, BET-BD with acetylated peptide ligand
# Format: binding
# details: BRD4-BD1; Table 11 additional modifications; read-out: 4.1 EC50
propertyLabel: EC50 (µM)
Report the figure in µM without appending any unit label.

CC(=O)Nc1cccc(-c2ccc3c(c2)[C@H](NCCCc2ccccc2)C[C@H](C)N3C(C)=O)c1
69
CC(=O)N1c2ccc(-c3cccc(NC(=O)C(C)(C)C)c3)cc2[C@H](NC(=O)OC(C)C)C[C@@H]1C
1.4
CC(=O)N1c2ccc(-c3ccc4[nH]ccc4c3)cc2[C@H](NC(=O)OC(C)C)C[C@@H]1C
6.6

Now, please, on to the next compound.
**Query** Form field: EC50 recorded for CC(=O)N1c2ccc(-c3coc4ccccc34)cc2[C@H](NC(=O)OC(C)C)C[C@@H]1C with BRD4-BD1 (Homo sapiens (Human)) (enter value)
**Result** 8.7

* * *

# measurementTarget: BRD2-BD1 (Homo sapiens (Human), UniProt P25440)
# Sequence (P25440 74-180): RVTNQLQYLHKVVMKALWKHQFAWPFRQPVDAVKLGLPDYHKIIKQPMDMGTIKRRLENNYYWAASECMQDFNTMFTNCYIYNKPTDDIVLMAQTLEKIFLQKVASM
# assay: competitive TR-FRET assay, BET-BD with acetylated peptide ligand
# Type: binding
# details: Table 8; read-out: EC50 (μM) BRD2(1)
Quick list: EC50 per entry.
Report the figure in µM without appending any unit label.

CC(=O)N1c2ccc(-c3ccc(C(=O)O)cc3)cc2[C@H](Nc2ccc(Cl)cc2)C[C@@H]1C [GSK-726, IBET-726, reference compound]
1.3
COC(=O)c1ccc(N[C@@H]2C[C@H](C)N(C(C)=O)c3ccc(-c4cccc(NC(C)=O)c4)cc32)cc1 [compound 4]
1.56

Now, please, on to the next molecule.
**Query** May I ask what EC50 has been recorded for COC(=O)c1ccc(N[C@@H]2C[C@H](C)N(C(C)=O)c3ccc(-c4ccnn4C)cc32)cc1 [compound 49] ?
**Result** 1.4

* * *

# measurementTarget: BRD3(1) (Homo sapiens (Human), UniProt Q15059)
# Sequence (Q15059 34-140): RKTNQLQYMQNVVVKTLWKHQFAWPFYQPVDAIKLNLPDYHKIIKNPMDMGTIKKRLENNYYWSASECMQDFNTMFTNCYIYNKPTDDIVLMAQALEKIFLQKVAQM
# assay: BROMOscan KD determination
# details: Table 10
Quick list: Kd per entry.
Report the figure in nM without appending any unit label.

Take a look at these entries with their results.
CC(=O)N1c2ccc(-c3cccc(-n4cccn4)c3)cc2[C@H](Nc2ccc(Cl)cc2)C[C@@H]1C
220
CC(=O)Nc1cccc(-c2ccc3c(c2)[C@H](Nc2ccccc2C(F)(F)F)C[C@H](C)N3C(C)=O)c1
500
CCCOc1cccc(-c2ccc3c(c2)[C@H](Nc2ccc(C(=O)OC)cc2)C[C@H](C)N3C(C)=O)c1
99
CC(=O)N1c2ccc(-c3ccc(C(=O)O)cc3)cc2[C@H](Nc2ccc(Cl)cc2)C[C@@H]1C [GSK-726, IBET-726, reference compound]
3.1
CC(=O)Nc1cccc(-c2ccc3c(c2)[C@H](Nc2ccccc2OC(F)(F)F)C[C@H](C)N3C(C)=O)c1
110

**Query** May I ask what Kd has been recorded for COC(=O)c1ccc(N[C@@H]2C[C@H](C)N(C(C)=O)c3ccc(-c4cccc(NCCC(F)(F)F)c4)cc32)cc1 ?
**Result** 37

* * *

# measurementTarget: BRD2-BD2 (Homo sapiens (Human), UniProt P25440)
# assay: competitive TR-FRET assay, BET-BD with acetylated peptide ligand
# Type: binding
# details: BRD2-BD2; Table 11 additional modifications; read-out: 2.2 EC50
# Sequence (P25440 344-453): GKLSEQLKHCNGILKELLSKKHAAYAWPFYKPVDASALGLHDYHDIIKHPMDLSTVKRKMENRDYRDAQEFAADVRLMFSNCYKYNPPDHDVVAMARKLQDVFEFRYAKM
pEC50: −log10 of the molar value.
Everything with pEC50 lower than 6 is not satisfied; everything else, including exactly 6, is satisfied.

CC(=O)Nc1cccc(-c2ccc3c(c2)[C@H](Nc2ccc(C#N)cc2)C[C@H](C)N3C(C)=O)c1
satisfied
CC(=O)Nc1cccc(-c2ccc3c(c2)[C@H](NC(=O)c2ccc(C(F)(F)F)cc2)C[C@H](C)N3C(C)=O)c1
not satisfied
COC(=O)c1cccc(N[C@@H]2C[C@H](C)N(C(C)=O)c3ccc(-c4cccc(NC(C)=O)c4)cc32)c1
satisfied

Then this compound:
**Query** pEC50 >= 6 for CC(=O)Nc1cccc(-c2ccc3c(c2)[C@H](N)C[C@H](C)N3C(C)=O)c1 ?
**Result** not satisfied

* * *

# Test system: c-Myc expression in HDMB03 cells
# assay: c-Myc expression inhibition, high content microscopy (HCM)
# Format: cell-based, human
# details: Homo sapiens, HD-MB03, Table 5; read-out: EC50 (μM) Myc-inhibition
Quick list: EC50 per entry.
Report the figure in µM without appending any unit label.

COc1ccccc1N[C@@H]1C[C@H](C)N(C(C)=O)c2ccc(-c3cccc(NC(C)=O)c3)cc21 [compound 40]
0.49
COC(=O)c1ccc(N[C@@H]2C[C@H](C)N(C(C)=O)c3ccc(-c4cccc(NC(C)=O)c4)cc32)cc1 [compound 4]
0.03

Now, please, on to the next compound.
**Query** May I ask what EC50 has been recorded for CC(=O)Nc1cccc(-c2ccc3c(c2)[C@H](Nc2ccccc2C(F)(F)F)C[C@H](C)N3C(C)=O)c1 [compound 41] ?
**Result** 6.2

* * *

# System: NALM-16
# assay: anti-proliferative activity
# Assay type: cell-based
# details: NALM16; Table 5
# Description: After 7 days of treatment, an equal volume of CellTiter-Glo reagent (G7572, Promega) was added and the luminescence signal was measured using an automated Envision plate reader (Perkin-Elmer). Luminescence data were normalized by log10 transformation prior to calculating the percent inhibition using the following equation: 100*(negative control mean −compound value)/(negative control mean −positive control mean).
Quick list: EC50 per entry.
Report the figure in µM without appending any unit label.

Take a look at these entries with their results.
CC(=O)Nc1cccc(-c2ccc3c(c2)[C@H](Nc2ccc(Cl)cc2)C[C@H](C)N3C(C)=O)c1
0.33
COc1ccccc1N[C@@H]1C[C@H](C)N(C(C)=O)c2ccc(-c3cccc(NC(C)=O)c3)cc21
0.26

**Query** May I ask what EC50 has been recorded for COC(=O)c1ccc(N[C@@H]2C[C@H](C)N(C(C)=O)c3ccc(-c4cccc(NC(C)=O)c4)cc32)cc1 ?
**Result** 0.35

* * *

# measurementTarget: BRD2-BD2 (Homo sapiens (Human), UniProt P25440)
# assay: competitive TR-FRET assay, BET-BD with acetylated peptide ligand
# Format: binding
# details: Table 6; read-out: EC50 (μM) BRD2(2)
propertyLabel: EC50 (µM)
Report the figure in µM without appending any unit label.

**Query** May I ask what EC50 has been recorded for CCCCCNc1cccc(-c2ccc3c(c2)[C@H](Nc2ccc(C(=O)OC)cc2)C[C@H](C)N3C(C)=O)c1 ?
**Result** 0.12

**Query** // query: COC(=O)c1ccc(N[C@@H]2C[C@H](C)N(C(C)=O)c3ccc(-c4cccc(NCc5ccoc5)c4)cc32)cc1
**Result** 0.05

**Query** // query: CCCCNc1cccc(-c2ccc3c(c2)[C@H](Nc2ccc(C(=O)OC)cc2)C[C@H](C)N3C(C)=O)c1
**Result** 0.16

**Query** // query: COC(=O)c1ccc(N[C@@H]2C[C@H](C)N(C(C)=O)c3ccc(-c4cccc(NC(C)=O)c4)cc32)cc1
**Result** 0.11

This collection of values is drawn from patent US11028051B2.
